molecular target: recombinant soluble homotrimeric HA of A/California/4/09 (H1N1) (Influenza A virus A/California/04/2009(H1N1)); test: HA microarray, BCC supernatant; details: remark: other sources report otherwise
Listed binders paired with reported Trimeric HA Binding: RLU
Number plus unit, in that order.

Below, 4 binders whose answers are already recorded.
binder	recorded.result
TCN-537 (3194_D21) (antibody, V domains shown) VH: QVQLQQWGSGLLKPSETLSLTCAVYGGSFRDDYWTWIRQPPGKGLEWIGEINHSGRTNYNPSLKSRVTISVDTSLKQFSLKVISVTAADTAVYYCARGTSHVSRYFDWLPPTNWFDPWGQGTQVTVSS VL: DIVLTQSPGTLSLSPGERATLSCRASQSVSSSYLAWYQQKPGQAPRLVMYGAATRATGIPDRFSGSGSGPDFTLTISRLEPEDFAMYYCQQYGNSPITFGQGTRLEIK	21900 RLU
TCN-557 (5081_A04) (antibody, V domains shown) VH: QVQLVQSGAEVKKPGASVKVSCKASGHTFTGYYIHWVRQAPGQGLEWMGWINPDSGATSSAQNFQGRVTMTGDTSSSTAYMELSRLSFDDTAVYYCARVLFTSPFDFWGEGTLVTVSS VL: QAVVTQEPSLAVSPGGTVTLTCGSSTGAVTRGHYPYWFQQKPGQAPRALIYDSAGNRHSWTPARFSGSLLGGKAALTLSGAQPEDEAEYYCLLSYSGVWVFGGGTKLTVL	17600 RLU
TCN-530 (5248_H10a) (antibody, V domains shown) VH: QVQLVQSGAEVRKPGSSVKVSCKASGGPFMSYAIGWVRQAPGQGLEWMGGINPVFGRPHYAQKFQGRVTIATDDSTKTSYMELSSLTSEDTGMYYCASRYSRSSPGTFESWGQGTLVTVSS VL: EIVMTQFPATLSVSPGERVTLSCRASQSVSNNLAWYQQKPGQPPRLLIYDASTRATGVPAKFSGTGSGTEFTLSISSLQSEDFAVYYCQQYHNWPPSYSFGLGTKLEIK	46600 RLU
TCN-522 (3212_I12) (antibody, V domains shown) VH: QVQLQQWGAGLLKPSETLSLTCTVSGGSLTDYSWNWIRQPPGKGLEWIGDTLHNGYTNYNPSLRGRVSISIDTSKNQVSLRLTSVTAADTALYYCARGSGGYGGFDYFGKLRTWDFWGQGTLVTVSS VL: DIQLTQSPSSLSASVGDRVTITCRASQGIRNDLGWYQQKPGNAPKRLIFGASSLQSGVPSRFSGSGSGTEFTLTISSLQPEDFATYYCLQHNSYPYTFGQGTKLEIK	5020 RLU

Item TCN-534 (5249_B02) (antibody, V domains shown) VH: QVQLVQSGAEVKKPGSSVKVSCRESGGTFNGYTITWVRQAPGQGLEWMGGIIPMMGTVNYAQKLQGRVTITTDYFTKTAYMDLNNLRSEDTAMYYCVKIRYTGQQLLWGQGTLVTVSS VL: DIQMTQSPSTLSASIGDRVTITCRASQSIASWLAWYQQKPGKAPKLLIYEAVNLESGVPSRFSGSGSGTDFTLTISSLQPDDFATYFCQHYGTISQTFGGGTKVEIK has what recorded Trimeric HA Binding: RLU? 30100 RLU

Values compiled from patent US20150086555A1.
